assay: Gelation experiment (gel formation in solvents); format: physicochemical

Compound	solvents gelated
O=C(O)CCNC(=O)[C@H](Cc1ccccc1)NC(=O)[C@H]1C[C@@H](C(=O)N[C@@H](Cc2ccccc2)C(=O)NCCC(=O)O)C[C@@H](C(=O)N[C@@H](Cc2ccccc2)C(=O)NCCC(=O)O)C1	water
O=C(O)C(Cc1ccccc1)NC(=O)[C@H]1C[C@@H](C(=O)NC(Cc2ccccc2)C(=O)O)C[C@@H](C(=O)NC(Cc2ccccc2)C(=O)O)C1 (mixture of isomers) [10a, CHexAmPheOH (mixture of isomers)]	water

----------
assay: Gelation in the presence of surfactants and polymeric micelles; assay type: physicochemical; design: key: G = gel; C = crystalline; G^a: ^a= not stable; conditions: anionic (SDS) > CMC
Quantity Measured: Gelation properties

Molecule	Reported Measurement
O=C(NCCOCCO)[C@H](Cc1ccccc1)NC(=O)[C@H]1C[C@@H](C(=O)N[C@@H](Cc2ccccc2)C(=O)NCCOCCO)C[C@@H](C(=O)N[C@@H](Cc2ccccc2)C(=O)NCCOCCO)C1	G
O=C(N[C@@H](CSSC[C@H](NC(=O)c1ccccc1)C(=O)O)C(=O)O)c1ccccc1 [DBC, dibenzoyl-L-cystine, reference compound]	G
CSCC[C@H](NC(=O)[C@H]1C[C@@H](C(=O)N[C@@H](CCSC)C(=O)O)C[C@@H](C(=O)N[C@@H](CCSC)C(=O)O)C1)C(=O)O	G
O=C(OCCO)[C@H](Cc1ccccc1)NC(=O)[C@H]1C[C@@H](C(=O)N[C@@H](Cc2ccccc2)C(=O)OCCO)C[C@@H](C(=O)N[C@@H](Cc2ccccc2)C(=O)OCCO)C1	G^a

----------
assay: Gelation in the presence of surfactants and polymeric micelles; type: physicochemical; set-up: key: G = gel; C = crystalline; G^a: ^a= not stable; details: cationic (CTAB) > CMC

Compound	Gelation properties
O=C(NCCOCCO)[C@H](Cc1ccccc1)NC(=O)[C@H]1C[C@@H](C(=O)N[C@@H](Cc2ccccc2)C(=O)NCCOCCO)C[C@@H](C(=O)N[C@@H](Cc2ccccc2)C(=O)NCCOCCO)C1	G
O=C(OCCO)[C@H](Cc1ccccc1)NC(=O)[C@H]1C[C@@H](C(=O)N[C@@H](Cc2ccccc2)C(=O)OCCO)C[C@@H](C(=O)N[C@@H](Cc2ccccc2)C(=O)OCCO)C1	G^a
O=C(N[C@@H](CSSC[C@H](NC(=O)c1ccccc1)C(=O)O)C(=O)O)c1ccccc1 [DBC, dibenzoyl-L-cystine, reference compound]	C
CSCC[C@H](NC(=O)[C@H]1C[C@@H](C(=O)N[C@@H](CCSC)C(=O)O)C[C@@H](C(=O)N[C@@H](CCSC)C(=O)O)C1)C(=O)O	C

----------
assay: Gelation experiment (gel formation in solvents); assay type: physicochemical
Quantity Measured: solvents gelated

Compound	solvents gelated
COC(=O)[C@H](Cc1c[nH]cn1)NC(=O)[C@H](CCSC)NC(=O)[C@@H]1C[C@H](C(=O)NC(CCSC)C(=O)N[C@H](Cc2c[nH]cn2)C(=O)OC)C[C@H](C(=O)N[C@@H](CCSC)C(=O)N[C@@H](Cc2c[nH]cn2)C(=O)OC)C1 (stereo partly shown) [gelator 14, CHexAmMetHisOMe]	water
O=C(NCCOCCO)[C@H](Cc1ccccc1)NC(=O)[C@H]1C[C@@H](C(=O)N[C@@H](Cc2ccccc2)C(=O)NCCOCCO)C[C@@H](C(=O)N[C@@H](Cc2ccccc2)C(=O)NCCOCCO)C1 [gelator 4, CHexAmPheNHCH2CH2OCH2CH2OH]	water and lower alcohols
CC(C)[C@H](NC(=O)[C@H]1C[C@@H](C(=O)N[C@H](C(=O)O)C(C)C)C[C@@H](C(=O)N[C@H](C(=O)O)C(C)C)C1)C(=O)O [CHex-Am-Val-OH]	water
CSCC[C@H](NC(=O)[C@H]1C[C@@H](C(=O)N[C@@H](CCSC)C(=O)O)C[C@@H](C(=O)N[C@@H](CCSC)C(=O)O)C1)C(=O)O [gelator 1, CHexAmMetOH]	water and lower alcohols
O=C(N[C@@H](Cc1ccccc1)C(=O)O)[C@H]1C[C@@H](C(=O)N[C@H](Cc2ccccc2)C(=O)O)C[C@@H](C(=O)N[C@H](Cc2ccccc2)C(=O)O)C1 [10b, CHexAmPheOH (DDL)]	water

Next:
Prompt: Would you mind telling me what solvents gelated value was observed for CC(NC(=O)[C@H](Cc1ccccc1)NC(=O)[C@H]1C[C@@H](C(=O)N[C@@H](Cc2ccccc2)C(=O)N[C@H](C)C(=O)O)C[C@@H](C(=O)N[C@@H](Cc2ccccc2)C(=O)N[C@H](C)C(=O)O)C1)C(=O)O (stereo partly shown) [gelator 11, CHexAm(L)Phe(D)AlaOH] ?
Completion: water and lower alcohols

----------
assay: Gelation in the presence of surfactants and polymeric micelles; type: physicochemical; parameters: key: G = gel; C = crystalline; G^a: ^a= not stable; conditions: Nonionic (Lactose der.) < CMC

Compound	Gelation properties
O=C(NCCOCCO)[C@H](Cc1ccccc1)NC(=O)[C@H]1C[C@@H](C(=O)N[C@@H](Cc2ccccc2)C(=O)NCCOCCO)C[C@@H](C(=O)N[C@@H](Cc2ccccc2)C(=O)NCCOCCO)C1	G
CSCC[C@H](NC(=O)[C@H]1C[C@@H](C(=O)N[C@@H](CCSC)C(=O)O)C[C@@H](C(=O)N[C@@H](CCSC)C(=O)O)C1)C(=O)O	G
O=C(N[C@@H](CSSC[C@H](NC(=O)c1ccccc1)C(=O)O)C(=O)O)c1ccccc1 [DBC, dibenzoyl-L-cystine, reference compound]	G
O=C(OCCO)[C@H](Cc1ccccc1)NC(=O)[C@H]1C[C@@H](C(=O)N[C@@H](Cc2ccccc2)C(=O)OCCO)C[C@@H](C(=O)N[C@@H](Cc2ccccc2)C(=O)OCCO)C1	G^a

----------
test: Gelation in the presence of surfactants and polymeric micelles; assay type: physicochemical; parameters: key: G = gel; C = crystalline; G^a: ^a= not stable; conditions: Nonionic (Lactose der.) > CMC

Compound	Gelation properties
O=C(OCCO)[C@H](Cc1ccccc1)NC(=O)[C@H]1C[C@@H](C(=O)N[C@@H](Cc2ccccc2)C(=O)OCCO)C[C@@H](C(=O)N[C@@H](Cc2ccccc2)C(=O)OCCO)C1 [gelator 2, CHexAmPheOCH2CH2OH]	G^a
O=C(NCCOCCO)[C@H](Cc1ccccc1)NC(=O)[C@H]1C[C@@H](C(=O)N[C@@H](Cc2ccccc2)C(=O)NCCOCCO)C[C@@H](C(=O)N[C@@H](Cc2ccccc2)C(=O)NCCOCCO)C1 [gelator 4, CHexAmPheNHCH2CH2OCH2CH2OH]	G
O=C(N[C@@H](CSSC[C@H](NC(=O)c1ccccc1)C(=O)O)C(=O)O)c1ccccc1 [DBC, dibenzoyl-L-cystine, reference compound]	G
CSCC[C@H](NC(=O)[C@H]1C[C@@H](C(=O)N[C@@H](CCSC)C(=O)O)C[C@@H](C(=O)N[C@@H](CCSC)C(=O)O)C1)C(=O)O [gelator 1, CHexAmMetOH]	G

----------
test: Gelation in the presence of surfactants and polymeric micelles; format: physicochemical; parameters: key: G = gel; C = crystalline; G^a: ^a= not stable; conditions: cationic (CTAB) < CMC

Compound	Gelation properties
O=C(NCCOCCO)[C@H](Cc1ccccc1)NC(=O)[C@H]1C[C@@H](C(=O)N[C@@H](Cc2ccccc2)C(=O)NCCOCCO)C[C@@H](C(=O)N[C@@H](Cc2ccccc2)C(=O)NCCOCCO)C1	G
CSCC[C@H](NC(=O)[C@H]1C[C@@H](C(=O)N[C@@H](CCSC)C(=O)O)C[C@@H](C(=O)N[C@@H](CCSC)C(=O)O)C1)C(=O)O	C
O=C(N[C@@H](CSSC[C@H](NC(=O)c1ccccc1)C(=O)O)C(=O)O)c1ccccc1 [DBC, dibenzoyl-L-cystine, reference compound]	G
O=C(OCCO)[C@H](Cc1ccccc1)NC(=O)[C@H]1C[C@@H](C(=O)N[C@@H](Cc2ccccc2)C(=O)OCCO)C[C@@H](C(=O)N[C@@H](Cc2ccccc2)C(=O)OCCO)C1	G^a

----------
assay: Gelation in the presence of surfactants and polymeric micelles; assay type: physicochemical; set-up: key: G = gel; C = crystalline; G^a: ^a= not stable; details: anionic (SDS) < CMC
Quantity Measured: Gelation properties

Compound	Quantity Measured	Reported Measurement
O=C(N[C@@H](CSSC[C@H](NC(=O)c1ccccc1)C(=O)O)C(=O)O)c1ccccc1 [DBC, dibenzoyl-L-cystine, reference compound]	Gelation properties	G
CSCC[C@H](NC(=O)[C@H]1C[C@@H](C(=O)N[C@@H](CCSC)C(=O)O)C[C@@H](C(=O)N[C@@H](CCSC)C(=O)O)C1)C(=O)O	Gelation properties	G
O=C(NCCOCCO)[C@H](Cc1ccccc1)NC(=O)[C@H]1C[C@@H](C(=O)N[C@@H](Cc2ccccc2)C(=O)NCCOCCO)C[C@@H](C(=O)N[C@@H](Cc2ccccc2)C(=O)NCCOCCO)C1	Gelation properties	G
O=C(OCCO)[C@H](Cc1ccccc1)NC(=O)[C@H]1C[C@@H](C(=O)N[C@@H](Cc2ccccc2)C(=O)OCCO)C[C@@H](C(=O)N[C@@H](Cc2ccccc2)C(=O)OCCO)C1	Gelation properties	G^a
